# Tested on: SF-268
# assay-details: Cytotoxicity against human SF268 cells after 48 hrs by MTT assay
# Format: functional, cell-based
# particulars: SF-268, 48 h
Reported IC50 is given for each of the following compounds.
property: IC50 (µM)

CC1(C)C[C@]23[C@@H]4COC(=O)[C@H]2CC[C@H]1[C@@H]3CC4=O; 16.9
COC[C@H]1C(=O)C[C@H]2[C@@H]3CC[C@H](C(=O)O)[C@]12CC3(C)C; 21.4
COC1=C(c2c[nH]c3ccccc23)C(=O)C(OC)=C(c2c[nH]c3ccccc23)C1=O; 15.8
C=CC(C)(C)c1[nH]c2ccccc2c1C1=C(OC)C(=O)C(c2c[nH]c3ccccc23)=C(OC)C1=O; 25.7
C=C1C(=O)C[C@H]2[C@@H]3CC[C@H](C(=O)OC)[C@]12CC3(C)C; 10.2
CC1(C)C[C@]23[C@@H](C(=O)O)CC[C@H]1[C@@H]2CC(=O)[C@@H]3CO; 7.8
C=C1C(=O)C[C@H]2[C@@H]3CC[C@H](C(=O)O)[C@]12CC3(C)C; 14.7
COC(=O)C1(c2c[nH]c3ccccc23)C(=O)C(OC)=C(c2c[nH]c3ccccc23)C1=O (centres undefined); 20.7
COC1=C(c2ccccc2)C(=O)C(OC)=C(c2ccccc2)C1=O; 28

###

# Tested on: MCF7
# assay-details: Cytotoxicity against human MCF7 cells after 48 hrs by MTT assay
# Format: functional, cell-based
# particulars: MCF7, 48 h
Decide using IC50 alone. Strictly below 20 µM: true. Equal to or above 20 µM: false.

C=C1C(=O)C[C@H]2[C@@H]3CC[C@H](C(=O)OC)[C@]12CC3(C)C; true
CC(=O)O[C@H]1C(=O)[C@@]2(C)[C@H]([C@H](OC(=O)c3ccccc3)[C@]3(O)C[C@H](OC(=O)[C@H](O)[C@@H](NC(=O)c4ccccc4)c4ccccc4)C(C)=C1C3(C)C)[C@]1(OC(C)=O)CO[C@@H]1C[C@@H]2O [PACLITAXEL]; true
COC1=C(c2c[nH]c3ccccc23)C(=O)C(OC)=C(c2c[nH]c3ccccc23)C1=O [ASTERRIQUINONE D]; true
COC[C@H]1C(=O)C[C@H]2[C@@H]3CC[C@H](C(=O)O)[C@]12CC3(C)C; false
COC(=O)C1(c2c[nH]c3ccccc23)C(=O)C(OC)=C(c2c[nH]c3ccccc23)C1=O (stereo not given) [ASTERREDIONE]; false
COC1=C(c2ccccc2)C(=O)C(OC)=C(c2ccccc2)C1=O [BETULINAN A]; true
CC1(C)C[C@]23[C@@H](C(=O)O)CC[C@H]1[C@@H]2CC(=O)[C@@H]3CO; true
C=C1C(=O)C[C@H]2[C@@H]3CC[C@H](C(=O)O)[C@]12CC3(C)C; false
C=CC(C)(C)c1[nH]c2ccccc2c1C1=C(OC)C(=O)C(c2c[nH]c3ccccc23)=C(OC)C1=O; true
CC1(C)C[C@]23[C@@H]4COC(=O)[C@H]2CC[C@H]1[C@@H]3CC4=O [QUADRONE]; true
